targetDesc: human P2X4 (Homo sapiens)
Sequence (Q99571 1-388): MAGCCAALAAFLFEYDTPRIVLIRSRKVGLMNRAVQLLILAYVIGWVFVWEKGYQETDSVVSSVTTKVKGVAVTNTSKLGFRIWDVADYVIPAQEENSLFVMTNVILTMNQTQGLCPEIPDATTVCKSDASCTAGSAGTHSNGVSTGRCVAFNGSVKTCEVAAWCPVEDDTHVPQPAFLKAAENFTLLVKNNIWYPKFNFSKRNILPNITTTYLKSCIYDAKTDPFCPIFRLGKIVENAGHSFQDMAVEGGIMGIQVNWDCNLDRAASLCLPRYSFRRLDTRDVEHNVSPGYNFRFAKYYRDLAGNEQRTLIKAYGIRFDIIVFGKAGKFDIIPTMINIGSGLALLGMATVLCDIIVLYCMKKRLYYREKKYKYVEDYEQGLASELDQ
protocolText: P2X4 receptor antagonistic action: ATP-induced intracellular calcium response (Fura-2AM) in P2X4 receptor-expressing 1321N1 cells
Type: cell-based
experimentalContext: Table 134 (Example 14); same protocol as Example 1; read-out: Inhibitory action IC50
propertyName: pIC50
Numbers only, as −log10 of the molar value.

Query block: Reported pIC50 for human P2X4 (Homo sapiens), given O=C1CC(=O)N(c2ccc(-n3nnnc3Cc3ccccc3O)nc2)c2ccc3ccccc3c2N1 [Compound H11] ?
Result block: 7.11

----------
targetDesc: UniProt Q99571
protocolText: P2X4 receptor antagonistic action: ATP-induced intracellular calcium response (Fura-2AM) in P2X4 receptor-expressing 1321N1 cells
Type: cell-based
experimentalContext: read-out: Inhibitory action IC50
Where a name gives a salt, the structure may show the parent alone.
propertyName: pIC50
One number for each entry, as −log10 of the molar value.

Query block: Requested read-out: pIC50. Entry: COc1c(F)cccc1CCc1nccn1-c1ccc(N2C(=O)CC(=O)Nc3c2ccc2ccccc32)cc1 [Compound H83, hydrochloride]
Result block: 7.06
